Give Ki for every item shown.
target: Tyrosinase (Agaricus bisporus, UniProt O42713); test: Inhibition of mashroom tyrosinase
Enter your answer as a number in µM; do not include the unit.

Kindly state the measured Ki obtained for COc1cc(OC)c(C2CCN(C)C2CO)c(O)c1-c1cc(-c2ccc([N+](=O)[O-])cc2Cl)[nH]n1 (centres undefined) with Tyrosinase (Agaricus bisporus, UniProt O42713).
9.85

Cool, now COc1ccc(-c2cc(-c3c(OC)cc(OC)c(C4CCN(C)C4CO)c3O)n[nH]2)c(OC)c1 (centres undefined)
0.84

# repeat for COc1cc(OC)c(C2CCN(C)C2CO)c(O)c1-c1cc(-c2ccccc2Cl)[nH]n1 (centres undefined)
10.6

Same read-out for COc1cc(OC)c(C2CCN(C)C2CO)c(O)c1-c1cc(-c2ccc(F)cc2)[nH]n1 (centres undefined) ?
11.2

----------
biological target: Tyrosinase (Agaricus bisporus, UniProt O42713); assay: Inhibition of mashroom tyrosinase assessed as oxidation of L-DOPA
testReadout: pIC50
Notebook: values listed as pIC50 are -log10 of the concentration (mol/L).

Suppose we examine the compound COc1cc(OC)c(C2CCN(C)C2CO)c(O)c1-c1cc(-c2ccccc2Cl)[nH]n1 (centres undefined) ; what pIC50 value has been reported?
4.53

Can you check COc1cc(OC)c(C2CCN(C)C2CO)c(O)c1-c1cc(-c2ccc(F)cc2)[nH]n1 (centres undefined) next?
4.71

Request: COc1ccc(-c2cc(-c3c(OC)cc(OC)c(C4CCN(C)C4CO)c3O)n[nH]2)c(OC)c1 (centres undefined)
5.55

What about COc1cc(OC)c(C2CCN(C)C2CO)c(O)c1-c1cc(-c2ccc([N+](=O)[O-])cc2Cl)[nH]n1 (centres undefined) ?
4.67

----------
Target: Tyrosinase (Agaricus bisporus)
Sequence (O42713 whole entry): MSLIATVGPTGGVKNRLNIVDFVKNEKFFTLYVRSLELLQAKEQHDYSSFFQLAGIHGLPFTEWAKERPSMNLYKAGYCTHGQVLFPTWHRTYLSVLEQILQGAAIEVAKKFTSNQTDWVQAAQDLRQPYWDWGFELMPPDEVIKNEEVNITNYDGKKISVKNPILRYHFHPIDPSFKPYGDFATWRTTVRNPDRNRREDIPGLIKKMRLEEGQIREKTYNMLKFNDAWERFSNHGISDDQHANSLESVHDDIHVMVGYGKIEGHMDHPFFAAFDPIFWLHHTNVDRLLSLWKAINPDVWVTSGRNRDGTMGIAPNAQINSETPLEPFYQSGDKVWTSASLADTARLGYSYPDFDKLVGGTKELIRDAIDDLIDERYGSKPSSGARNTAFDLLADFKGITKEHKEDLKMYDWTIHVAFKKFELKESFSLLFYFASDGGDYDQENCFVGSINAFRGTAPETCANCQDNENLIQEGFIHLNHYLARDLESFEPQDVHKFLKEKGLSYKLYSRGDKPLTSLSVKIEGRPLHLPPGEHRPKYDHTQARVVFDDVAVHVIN
Test: Inhibition of mashroom tyrosinase
testReadout: pIC50
Kindly note that pIC50 refers to -log10 of the concentration in mol/L and answer with the value alone.

Which measured pIC50 belongs to COc1ccc(-c2cc(-c3c(OC)cc(OC)c(C4CCN(C)C4CO)c3O)n[nH]2)c(OC)c1 (centres undefined) , tested on Tyrosinase (Agaricus bisporus)?
5.76

How about COc1cc(OC)c(C2CCN(C)C2CO)c(O)c1-c1cc(-c2ccc([N+](=O)[O-])cc2Cl)[nH]n1 (centres undefined) ?
4.75

Please give the result for COc1cc(OC)c(C2CCN(C)C2CO)c(O)c1-c1cc(-c2ccccc2Cl)[nH]n1 (centres undefined) too.
4.64

Another molecule to look at: COc1cc(OC)c(C2CCN(C)C2CO)c(O)c1-c1cc(-c2ccc(F)cc2)[nH]n1 (centres undefined)
4.81
